Target: T1, 4H3381-bN
T1 chain: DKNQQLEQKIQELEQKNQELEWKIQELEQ
Experiment: two-hybrid library CCNG1;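 further: natural log of median RNA to DNA barcode read ratio; higher means stronger binding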
quantity_measured: interaction score

Solved entries (count: 6):
>  <binder>
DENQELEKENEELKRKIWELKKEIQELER [4H1257-bH]

>  <interaction score>
-0.693

$$$$
>  <binder>
DKIQQLKQKNQELKQKIQELEWEIQELEQ [4H3041-bN]

>  <interaction score>
-1.06

$$$$
>  <binder>
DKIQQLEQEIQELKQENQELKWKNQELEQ [4H2143-bN]

>  <interaction score>
-0.161

$$$$
>  <binder>
DKIQQLKQEIQELEQENQELKWEIQELEQ [4H2585-bN]

>  <interaction score>
-2.06

$$$$
>  <binder>
DKNQQLEQENQELKQKIQELEWEIQELEQ [4H3297-bN]

>  <interaction score>
-1.01

$$$$
>  <binder>
DKNQQLEQKIQELEQKIQELEWENQELKQ [4H3364-bN]

>  <interaction score>
-0.731

$$$$

[I] DKIQQLEQKNQELKQENQELEWKIQELKQ [4H2518-bN]
[II] DKIQQLEQENQELKQEIQELKWKIQELEQ [4H2253-bN]
Inquiry: Consider entries I and II . Which has the numerically lower interaction score? Refer to your chosen item by its label in the answer.
Reply text: II
